Property: convulsion dose; scope: individual molecules
test system: conscious rats; experiment: Determination of CNS toxicity: convulsions in conscious rats on increasing i.v. infusion; type: in vivo; conditions: rat, in vivo, iv
Note: unit µmol/kg/min is implicit; provide only the numeric part.

Field: convulsion dose (conscious rats). Entry: COc1ccc(CCO[C@@H]2CCCC[C@H]2N2CC[C@H](O)C2)cc1OC.Cl 64

Field: convulsion dose (conscious rats). Entry: COc1ccc(CCOC2CCCC[C@H]2N2CC=CC2)cc1OC.Cl (stereo partly drawn) 8

Field: convulsion dose (conscious rats). Entry: COc1ccc(CCCCO[C@H]2CCCCC2N2CCOCC2)cc1OC.Cl (stereo partly drawn) 10.7

Field: convulsion dose (conscious rats). Entry: Cl.O[C@@H]1CCN(C2CCCC[C@@H]2OCCc2ccccc2C(F)(F)F)C1 (stereo partly drawn) 16

Field: convulsion dose (conscious rats). Entry: COc1ccc(CCO[C@H]2CCCCC2N2CC[C@@H](OCc3ccccc3)C2)cc1OC.Cl (stereo partly drawn) 8

Field: convulsion dose (conscious rats). Entry: Clc1ccc(CCO[C@H]2CCCCC2N2CCOCC2)cc1Cl (stereo partly drawn) 16

Field: convulsion dose (conscious rats). Entry: c1cc(CCO[C@H]2CCCCC2N2CCOCC2)c2ccsc2c1 (stereo partly drawn) 8

Field: convulsion dose (conscious rats). Entry: Brc1ccc(OCCO[C@H]2CCCCC2N2CCOCC2)cc1 (stereo partly drawn) 10.7

Note: attention shifts to another entry.
Field: convulsion dose (conscious rats). Entry: Brc1ccc(CCO[C@H]2CCCCC2N2CCOCC2)cc1 (stereo partly drawn) 12

###

Property: convulsion dose; scope: individual compounds
tested on: conscious rats; experiment: Determination of CNS toxicity: convulsions in conscious rats on increasing i.v. infusion; assay type: in vivo; conditions: rat, in vivo, iv
Note: unit µmol/kg/min is implicit; provide only the numeric part.

Take a look at these entries with their results.
# lookup: convulsion dose of COc1ccc(CCO[C@H]2CCCCC2N2CCCC2)cc1OC.Cl (stereo partly drawn) [Compound 10] 21.33

# lookup: convulsion dose of c1ccc2cc(OCCO[C@H]3CCCCC3N3CCOCC3)ccc2c1 (stereo partly drawn) [Compound 33] 8

Note: attention shifts to another entry.
# lookup: convulsion dose of COc1ccc(CCO[C@H]2CCCCC2N2CC[C@H](OC(C)=O)C2)cc1OC.Cl (stereo partly drawn) [Compound 13] 8

###

Property: convulsion dose; scope: individual molecules
system: conscious rats; test: Determination of CNS toxicity: convulsions in conscious rats on increasing i.v. infusion; format: in vivo; details: rat, in vivo, iv
Note: unit µmol/kg/min is implicit; provide only the numeric part.

Take a look at these entries with their results.
# lookup: convulsion dose of COc1ccc(CCO[C@H]2CCCCC2N2CC[C@@H](O)C2)cc1OC.Cl (stereo partly drawn) 64

# lookup: convulsion dose of Cl.O=C1CCN(C2CCCC[C@@H]2OCCc2c(Cl)cccc2Cl)C1 (stereo partly drawn) 32

# lookup: convulsion dose of COc1cc(CCCO[C@H]2CCCCC2N2CC[C@@H](O)C2)cc(Cl)c1OC.Cl (stereo partly drawn) 13.33

# lookup: convulsion dose of Cl.OC1CCN([C@@H]2CCCC[C@@H]2OCCc2cccc3ccccc23)C1 (stereo partly drawn) 16

# lookup: convulsion dose of Cl.OC1CCN(C2CCCC[C@@H]2OCCc2cccc3ccccc23)C1 (stereo partly drawn) 8

# lookup: convulsion dose of c1ccc2cc(CCO[C@H]3CCCCC3N3CCOCC3)ccc2c1 (stereo partly drawn) 13.3

# lookup: convulsion dose of Cl.Clc1cccc(Cl)c1COC1CCCC[C@H]1N1CCOCC1 (stereo partly drawn) 16

# lookup: convulsion dose of COc1ccc(CCO[C@@H]2CCCC[C@H]2N2CC[C@@H](OC(C)=O)C2)cc1OC.Cl 13.33

Note: attention shifts to another entry.
# lookup: convulsion dose of Cl.Clc1cccc(Cl)c1CCOC1CCCC[C@H]1N1CCSC1 (stereo partly drawn) 43
